// data source = patent US20220193237A1

pKd for assorted binders
# SYSTEM UNDER TEST: T1, monomeric human CTLA-4 (human, UniProt P16410 36-161, limits assumed)
# T1 construct: Soluble monomeric analyte in SPR; also called huCTLA-4
# T1 sequence: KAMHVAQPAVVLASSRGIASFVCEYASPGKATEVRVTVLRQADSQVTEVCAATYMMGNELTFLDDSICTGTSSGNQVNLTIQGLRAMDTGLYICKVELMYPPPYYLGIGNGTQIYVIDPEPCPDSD
# ASSAY NOTES: SPR, captured Fab, pH 7.4
pKd: −log10 of the molar value.

BINDER: ipi.95 Fab (Fab, V domains shown, Tested as monovalent Fab) VH: QVQLVESGGGVVQPGRSLRLSCAASGFTFSHYTMHWVRQAPGKGLEWVTFISYDGHNKYYADSVKGRFTISRDNSKNTLYLQMNSLRAEDTAIYYCARTGWLGPFDYWGQGTLVTVSS VL: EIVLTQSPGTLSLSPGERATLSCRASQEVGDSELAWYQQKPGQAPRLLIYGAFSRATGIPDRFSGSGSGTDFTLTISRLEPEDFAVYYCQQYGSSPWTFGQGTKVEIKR
CENSORING OPERATOR: =
pKd: 6.55

BINDER: ipi.94 Fab (Fab, V domains shown, Tested as monovalent Fab) VH: QVQLVESGGGVVQPGRSLRLSCAASGFTFSHYTMHWVRQAPGKGLEWVTFISYDGNNKYYADSVKGRFTISRDNSKNTLYLQMNSLRAEDTAIYYCARTGWLGPFDYWGQGTLVTVSS VL: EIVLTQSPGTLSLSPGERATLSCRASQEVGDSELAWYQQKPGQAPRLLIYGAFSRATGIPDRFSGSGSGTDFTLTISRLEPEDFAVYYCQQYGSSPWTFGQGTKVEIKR
CENSORING OPERATOR: =
pKd: 6.57

BINDER: ipi.92 Fab (Fab, V domains shown, Tested as monovalent Fab) VH: QVQLVESGGGVVQPGRSLRLSCAASGFTFSHYTMHWVRQAPGKGLEWVTFISYDGHNKYYADSVKGRFTISRDNSKNTLYLQMNSLRAEDTAIYYCARHGWLGPFDYWGQGTLVTVSS VL: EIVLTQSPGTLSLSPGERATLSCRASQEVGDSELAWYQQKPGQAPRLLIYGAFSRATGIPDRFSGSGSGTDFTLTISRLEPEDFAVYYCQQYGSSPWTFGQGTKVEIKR
CENSORING OPERATOR: <
pKd: 6.00

BINDER: ipi.93 Fab (Fab, V domains shown, Tested as monovalent Fab) VH: QVQLVESGGGVVQPGRSLRLSCAASGFTFSSYTMHWVRQAPGKGLEWVTFISYDGNNKYYADSVKGRFTISRDNSKNTLYLQMNSLRAEDTAIYYCARTGWLGPFDYWGQGTLVTVSS VL: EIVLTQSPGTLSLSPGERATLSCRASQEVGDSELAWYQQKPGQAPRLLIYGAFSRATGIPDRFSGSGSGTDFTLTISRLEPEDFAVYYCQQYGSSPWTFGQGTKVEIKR
CENSORING OPERATOR: =
pKd: 6.68

BINDER: ipi.106 Fab (Fab, V domains shown, Tested as monovalent Fab) VH: QVQLVESGGGVVQPGRSLRLSCAASGFTFSHYTMHWVRQAPGKGLEWVTFISYDGHNKYYADSVKGRFTISRDNSKNTLYLQMNSLRAEDTAIYYCARHGWLGPFDYWGQGTLVTVSS VL: EIVLTQSPGTLSLSPGERATLSCRASQEVGESELAWYQQKPGQAPRLLIYGAFSRATGIPDRFSGSGSGTDFTLTISRLEPEDFAVYYCQQYGSSPWTFGQGTKVEIKR
CENSORING OPERATOR: <
pKd: 6.46

BINDER: ipi.105 Fab (Fab, V domains shown, Tested as monovalent Fab) VH: QVQLVESGGGVVQPGRSLRLSCAASGFTFSHYTMHWVRQAPGKGLEWVTFISYDGHNKYYADSVKGRFTISRDNSKNTLYLQMNSLRAEDTAIYYCARTGWLGPFDYWGQGTLVTVSS VL: EIVLTQSPGTLSLSPGERATLSCRASQEVGESELAWYQQKPGQAPRLLIYGAFSRATGIPDRFSGSGSGTDFTLTISRLEPEDFAVYYCQQYGSSPWTFGQGTKVEIKR
CENSORING OPERATOR: =
pKd: 6.41
